- System: R. dentocariosa
- assay.text: Biolog Phenotype Microarray PM1-2 growth on carbon sources
- Type: cell-based, Rothia dentocariosa
- Protocol: Using Phenotype Microarray (PM) panels (Biolog), the influence of 190 carbon sources on the growth of the potential probiotic species R. mucilaginosa, R. dentocariosa, R. gilardii, G. haemolysans, and common respiratory pathogens P. aeruginosa, and S. aureus was determined. PM1 and PM2 panels (Biolog) were inoculated according to the manufacturer's instructions. Growth curves were generated for 35 hours by measuring the absorbance at 590 nm using an EnVision (Perkin Elmer) plate reader.
Residues, ends and D or L forms follow the SMILES beside them.
measured.attribute: AUC of growth curve, R. dentocariosa
I'd appreciate a reply containing only the number, no unit.

Sample answers from the record:
compound	experimental.target	measured.attribute	numeric.result
O=C(CO)[C@@H](O)[C@H](O)[C@@H](O)C(=O)O	R. dentocariosa	AUC of growth curve, R. dentocariosa	277.0
O=C(CO)[C@@H](O)[C@H](O)[C@@H](O)CO	R. dentocariosa	AUC of growth curve, R. dentocariosa	52.1
O=C(CO)[C@H](O)[C@H](O)[C@H](O)CO	R. dentocariosa	AUC of growth curve, R. dentocariosa	428.2
NCC(=O)N1CCC[C@H]1C(=O)O [Glycyl-L-Proline] (H-Gly-Pro-OH)	R. dentocariosa	AUC of growth curve, R. dentocariosa	72.5

Consider the compound shown here: O=C(O)C(=O)C(C(=O)O)C(O)C(=O)O (stereo not shown) What is its recorded AUC of growth curve, R. dentocariosa?
169.4

Consider the compound shown here: O=C(CO)[C@@H](O)[C@@H](O)[C@H](O)CO What is its recorded AUC of growth curve, R. dentocariosa?
117.7

Consider the compound shown here: O=C(CO)[C@@H](O)[C@H](O)[C@H](O)CO What is its recorded AUC of growth curve, R. dentocariosa?
109.5

Value source: patent US20230293599A1
